target: Retinoic acid receptor alpha (Homo sapiens) (UniProt P10276); experiment: ATG_DR5_RAR_CIS: Attagene CIS-FACTORIAL HepG2 Assay for human Retinoic Acid Receptor Alpha (RARE), DR5 submotif (AID 2282934); conditions: HepG2 Attagene cis-factorial RARE DR5 reporter, mRNA; actives raise or lower the signal
Sequence (P10276 whole entry, looked up): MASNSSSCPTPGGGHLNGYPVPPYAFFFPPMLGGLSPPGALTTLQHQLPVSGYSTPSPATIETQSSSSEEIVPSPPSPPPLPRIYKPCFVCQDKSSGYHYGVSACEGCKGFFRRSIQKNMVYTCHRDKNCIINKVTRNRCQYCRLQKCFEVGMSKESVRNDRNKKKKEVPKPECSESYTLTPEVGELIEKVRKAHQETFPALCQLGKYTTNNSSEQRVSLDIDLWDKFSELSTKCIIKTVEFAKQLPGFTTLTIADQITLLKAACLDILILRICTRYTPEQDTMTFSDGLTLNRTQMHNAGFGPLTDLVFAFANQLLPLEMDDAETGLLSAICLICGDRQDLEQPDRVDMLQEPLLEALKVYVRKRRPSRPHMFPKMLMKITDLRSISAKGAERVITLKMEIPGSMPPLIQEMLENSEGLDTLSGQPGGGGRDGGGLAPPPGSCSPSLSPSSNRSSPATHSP
Activity calls are given as the source filed them. How the source made its calls: active means hit-call score of the fitted dose curve at least 0.9, where 1 is the maximum; inactive means score below 0.9.
Valid outcomes are listed here; reply with one: 1 (active), -1 (inactive)

Worked cases, answers included:
CCCCN(CCCC)C(=S)S
1
c1ccc2c(c1)Oc1ccccc1O2
-1
Cc1cccc(N=Nc2ccc(N(C)C)cc2)c1
-1
CC(C)(c1ccc(O)c(-c2ccccc2)c1)c1ccc(O)c(-c2ccccc2)c1
-1
CCOC(=O)Cc1ccccc1
-1
CNC(=O)CSP(=O)(OC)OC
-1
Cl[C@H]1OCCO[C@@H]1Cl
-1
Cc1cc(C(C)(C)c2ccc(O)c(C)c2)ccc1O
1
CCCCCCCCBr
-1
CNC(=O)O/N=C/C(C)(C)S(C)(=O)=O
-1

Input: Lab log entry: OC(Cc1ccccc1Cl)(Cn1cncn1)C1(Cl)CC1 (centres undefined) — outcome as called in the assay?
Output: -1

Input: Entry to check: "CC(C)(C)c1ccc(CCOc2ncnc3ccccc23)cc1"
Output: -1

Input: Entry to check: "O=C(Cl)OCCOCCOC(=O)Cl"
Output: -1

Input: Entry to check: "O=C(O)C1(c2ccc3c(c2)OC[C@H](Cc2ccc(-c4ccccc4)cc2)[C@H]3O)CCCC1"
Output: -1
